Origin of values: the supplement of paper PMC9112550

Tested on: Escherichia coli TOP10;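 note: peptides expressed intracellularly from a pBAD plasmid library in pooled LB shake-flask culture, induced with 0.3% L-arabinose, DNA abundance read by NGS, three biological replicates, DESeq2 with apeglm shrinkage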
assay_explanation: shrunken log2 fold change of peptide-encoding DNA abundance (4.5 h post-induction vs induction); higher = less antimicrobial activity (less host growth inhibition)
condition_summary: time post-induction: 4.5 h; library: site-saturation at positions 5, 18, 19, 20
metric: shrunken log2 fold change

Study these solved cases before continuing.
[
  {
    "sequence_text": "RRIRKRPPRLPRPRPRPNYRPRP",
    "shrunken log2 fold change": 0.123
  },
  {
    "sequence_text": "RRIRERPPRLPRPRPRPQNHPRP",
    "shrunken log2 fold change": -0.519
  },
  {
    "sequence_text": "RRIRRRPPRLPRPRPRPRKFPRP",
    "shrunken log2 fold change": 0.491
  }
]

Attention now shifts to the item below.
// fetch Escherichia coli TOP10 shrunken log2 fold change for RRIRVRPPRLPRPRPRPHGWPRP
0.492
